Here the recorded inhibition at 0.1 µM is given for each entry.
Tgt: recombinant human PAI-1 (Homo sapiens)
Construct: purchased Molecular Innovations, Inc
Sequence (P05121 24-402): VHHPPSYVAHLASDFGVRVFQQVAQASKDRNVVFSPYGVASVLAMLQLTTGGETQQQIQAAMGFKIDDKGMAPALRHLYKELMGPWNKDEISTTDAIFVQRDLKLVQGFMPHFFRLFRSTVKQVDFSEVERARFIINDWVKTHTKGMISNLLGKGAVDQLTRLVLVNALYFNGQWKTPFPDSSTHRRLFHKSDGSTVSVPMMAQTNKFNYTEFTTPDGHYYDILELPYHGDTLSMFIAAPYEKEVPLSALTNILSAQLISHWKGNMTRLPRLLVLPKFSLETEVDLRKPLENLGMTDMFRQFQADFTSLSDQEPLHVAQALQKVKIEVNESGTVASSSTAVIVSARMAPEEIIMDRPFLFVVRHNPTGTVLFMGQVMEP
Method: Test Example 4: human PAI-1 inhibitory activity (amount of PAI-1 bound to plate-coated tPA, ELISA)
Format: biochemical
Condition Parameters: compound 0.1 μM; PAI-1 50 ng/ml bound to coated tPA; read-out: Inhibition Rate of Human PAI-1 Activity (%)
Experimental Readout: inhibition at 0.1 µM (%)

Smiles Str: CCCOc1ccc(N(Cc2ccc(C(C)(C)C)cc2)C(=O)C(=O)O)cc1-c1ccc(OC(F)(F)F)cc1
Tgt: recombinant human PAI-1 (Homo sapiens)
Experimental Readout: inhibition at 0.1 µM
Measured Number: 0

Smiles Str: CC(C)(C)c1ccc(CN(C(=O)C(=O)O)c2ccc(Oc3ccc(OC(F)(F)F)cc3)cc2C(F)(F)F)cc1
Tgt: recombinant human PAI-1 (Homo sapiens)
Experimental Readout: inhibition at 0.1 µM
Measured Number: 0

Smiles Str: CCCCCOc1ccc(-c2ccc(OC(F)(F)F)cc2)cc1N(Cc1ccc(C(C)(C)C)cc1)C(=O)C(=O)O
Tgt: recombinant human PAI-1 (Homo sapiens)
Experimental Readout: inhibition at 0.1 µM
Measured Number: 0

Smiles Str: CCCCc1ccc(CN(C(=O)C(=O)O)c2ccc(-c3ccc(C(C)(C)C)cc3)cc2)cc1
Tgt: recombinant human PAI-1 (Homo sapiens)
Experimental Readout: inhibition at 0.1 µM
Measured Number: 0

Smiles Str: CCC(CC)Oc1ccc(-c2ccc(OC(F)(F)F)cc2)cc1N(Cc1ccc(C(C)(C)C)cc1)C(=O)C(=O)O
Tgt: recombinant human PAI-1 (Homo sapiens)
Experimental Readout: inhibition at 0.1 µM
Measured Number: 8

Smiles Str: CC(C)(C)c1ccc(CN(C(=O)C(=O)O)c2ccc(Cl)c(-c3ccc(OC(F)(F)F)cc3)c2)cc1
Tgt: recombinant human PAI-1 (Homo sapiens)
Experimental Readout: inhibition at 0.1 µM
Measured Number: 6

Smiles Str: CC(C)(C)c1ccc(CN(C(=O)C(=O)O)c2cc(-c3ccc(OC(F)(F)F)cc3)cc(C(F)(F)F)c2)cc1
Tgt: recombinant human PAI-1 (Homo sapiens)
Experimental Readout: inhibition at 0.1 µM
Measured Number: 0

Smiles Str: Cc1ccc(N(Cc2ccc(C(C)(C)C)cc2)C(=O)C(=O)O)cc1-c1ccc(OC(F)(F)F)cc1
Tgt: recombinant human PAI-1 (Homo sapiens)
Experimental Readout: inhibition at 0.1 µM
Measured Number: 4

Smiles Str: CCC(CC)Oc1ccc(N(Cc2ccc(C(C)(C)C)cc2)C(=O)C(=O)O)cc1-c1ccc(OC(F)(F)F)cc1
Tgt: recombinant human PAI-1 (Homo sapiens)
Experimental Readout: inhibition at 0.1 µM
Measured Number: 12

Smiles Str: CCCOc1ccc(N(Cc2ccc(C(C)(C)C)cc2)C(=O)C(=O)O)c(-c2ccc(OC(F)(F)F)cc2)c1
Tgt: recombinant human PAI-1 (Homo sapiens)
Experimental Readout: inhibition at 0.1 µM
Measured Number: 0

Smiles Str: COc1cc(OC)c(N(Cc2ccc(C(C)(C)C)cc2)C(=O)C(=O)O)cc1-c1ccc(OC(F)(F)F)cc1
Tgt: recombinant human PAI-1 (Homo sapiens)
Experimental Readout: inhibition at 0.1 µM
Measured Number: 0

Smiles Str: CCCCOc1ccc(-c2ccc(OC(F)(F)F)cc2)cc1N(Cc1ccc(C(C)(C)C)cc1)C(=O)C(=O)O
Tgt: recombinant human PAI-1 (Homo sapiens)
Experimental Readout: inhibition at 0.1 µM
Measured Number: 0

Smiles Str: CC(C)(C)c1ccc(CN(C(=O)C(=O)O)c2cccc(-c3ccc(OC(F)(F)F)cc3)c2)cc1
Tgt: recombinant human PAI-1 (Homo sapiens)
Experimental Readout: inhibition at 0.1 µM
Measured Number: 0

Smiles Str: CCN(CC)c1ccc(N(Cc2ccc(C(C)(C)C)cc2)C(=O)C(=O)O)c(-c2ccc(OC(F)(F)F)cc2)c1
Tgt: recombinant human PAI-1 (Homo sapiens)
Experimental Readout: inhibition at 0.1 µM
Measured Number: 0

Smiles Str: CC(C)(C)c1ccc(CN(C(=O)C(=O)O)c2ccc(-c3ccc(OC(F)(F)F)cc3)cc2)cc1
Tgt: recombinant human PAI-1 (Homo sapiens)
Experimental Readout: inhibition at 0.1 µM
Measured Number: 0

Entry source: patent US7884234B2
